Source: PubChem BioAssay (NCI)

Test system: NCI-H460 lung
EXPERIMENT: NCI tumour cell line growth inhibition, 48 h
Recorded measurements of TGI, one per entry

Example entries and their recorded answers appear below.
I would be grateful if you could share the reported TGI for CCOC(=O)c1cc(C2CCN(Cc3ccccc3)C2=O)c(C(=O)C(=[N+]=[N-])C(C)=O)[nH]1 (configuration not stated) .
> 100 µM

Query CN(C)CCCNc1nccc(-c2c(-c3ccc(F)cc3)nn3cc(C(F)(F)F)ccc23)n1 next
> 25 µM

***
I would be grateful if you could share the reported TGI for N#Cc1cccc(NC(=O)c2oc3ccccc3c2-c2cnn(-c3ccccc3)c2)c1 .
> 500 µM

Query O=P1(Oc2ccc(Cl)cc2)OCCS1 (configuration not stated) next
> 100 µM

Query C[C@]12C=CC(=O)C=C1CC[C@@H]1[C@@H]2C(=O)C[C@@]2(C)[C@H]1CC[C@]2(O)C(=O)CO next
> 100 µM

Query Cn1cc(C[C@@H](N)C(=O)O)c2ccccc21 next
> 100 µM

Query C#CCOC(=O)C(N)CSSCC(N)C(=O)O (configuration not stated) next
> 100 µM

Query O=C1c2nn(-c3ccccc3)nc2C(c2ccccc2)N1c1ccccc1 (configuration not stated) next
> 100 µM

Query CC(C)OP(=O)(OC(C)C)/C(=N/N)NNc1ccc([N+](=O)[O-])cc1 next
> 100 µM

Query Cc1ccc2c(=O)c(-c3nnc(N)s3)c[nH]c2n1 next
> 100 µM

Query COc1ccc(N[C@H](CS(=O)c2ccc(C)cc2)C(F)(F)C(F)(F)F)cc1 (some centres not stated) next
> 100 µM

Query C#COc1cccc(Nc2ncnc3ncc(NC(=O)CCl)cc23)c1 next
> 62.5 µM

###

Recorded measurements of TGI, one per entry
Test system: EKVX NSCLC
EXPERIMENT: NCI tumour cell line growth inhibition, 48 h

Example entries and their recorded answers appear below.
Recall the recorded TGI for CC1=C[C@]2(CC(C)C3C(CC4(C)C5CCC6C(C)(C)C(=O)CC[C@@]67C[C@@]57CC[C@]34C)O2)OC1=O (stereo partly drawn) with EKVX NSCLC and state it.
> 100 µM

Query Cc1ccc(S(=O)(=O)Oc2cc(S(=O)(=O)O)cc3cc(S(=O)(=O)O)cc(N)c23)cc1 next
> 100 µM

***
Recall the recorded TGI for N#Cc1cccc(NC(=O)c2oc3ccccc3c2-c2cnn(-c3ccccc3)c2)c1 with EKVX NSCLC and state it.
> 500 µM

###

System: M14 melanoma
EXPERIMENT: NCI tumour cell line growth inhibition, 48 h; in the data active = GI50 below about 0.43 µM; inactive = the rest
Would you mind answering with one of these outcomes? active, inactive

Short answer needed: outcome of this test for C#CCNC(=O)CC[C@]1(C)[C@H]2CC[C@@H]3[C@@H]([C@@](C)(O)CCC=C(C)C)CC[C@@]3(C)[C@]2(C)CC[C@H]1C(=C)C ?
inactive

Query COc1ccc(-c2nn(-c3cccc(NC(=O)Nc4cc(C(F)(F)F)cc(C(F)(F)F)c4)c3)cc2-c2ccncc2)cc1Cl next
inactive

Query O=C1/C(=C/c2ccccc2)CCC/C1=C\c1ccccc1 next
inactive

Query CC1=C(/C=C/C(C)=C/C=C/C(C)=C/C(=O)Nc2ccc(O)cc2)C(C)(C)CCC1 next
inactive

Query CC[C@@H](C(=O)[C@@H](C)[C@@H](O)[C@H](C)[C@@H]1O[C@@H]([C@@H](CC)C(=O)O)CC[C@@H]1C)[C@H]1OC2(C=C[C@@H](O)[C@]3(CC[C@@](C)([C@H]4CC[C@](O)(CC)[C@H](C)O4)O3)O2)[C@H](C)C[C@@H]1C (some centres not stated) next
inactive

Query CC(=O)OC[C@]12CC[C@@H]([C@@H](C)C(N)=O)[C@@H]1[C@H]1CC[C@@H]3[C@@]4(C)CC[C@H](OC(C)=O)C(C)(C)[C@@H]4CC[C@@]3(C)[C@]1(C)CC2 next
inactive

***
Short answer needed: outcome of this test for COc1ccc(/C=C\c2cc(OC)c(OC)c(OC)c2)cc1OC(=O)c1cccc(Cn2cc(CCOC(=O)c3cccc(Cn4nnc5c4C(=O)c4ccccc4C5=O)c3)nn2)c1 ?
active

###

Recorded measurements of TGI, one per entry
System: PC-3 prostate
EXPERIMENT: NCI tumour cell line growth inhibition, 48 h

Example entries and their recorded answers appear below.
I would be grateful if you could share the reported TGI for N#Cc1c(NC(=O)CN2CCOCC2)sc2c1CCCC2 .
> 25 µM

Query CC1(C)C(=S)C(C)(C)C1=S next
> 100 µM

Query CC(=O)OC1CCC2(C)C(=CCC3C2CCC2(C)C(C(C)C(=O)O)CCC32)C1 (stereo not given) next
> 100 µM

***
I would be grateful if you could share the reported TGI for CC[C@@H](C(=O)[C@@H](C)[C@@H](O)[C@H](C)[C@@H]1O[C@@H]([C@@H](CC)C(=O)O)CC[C@@H]1C)[C@H]1OC2(C=C[C@@H](O)[C@]3(CC[C@@](C)([C@H]4CC[C@](O)(CC)[C@H](C)O4)O3)O2)[C@H](C)C[C@@H]1C (stereo not given in full) .
> 50 µM

Query CN(C)CCCNc1nnc(NCCCN(C)C)c2c(=O)c3sccc3[nH]c12 next
> 61.4 µM

Query CCOC(=O)c1cc(C(=O)c2cc(OC)cc(OC)c2)n2ncc3ccccc3c12 next
> 100 µM

Query O=C(c1cccs1)c1c(C(F)(F)F)n([O-])c2ccc(F)cc2[n+]1=O next
2.33 µM

Query COC(=O)[C@H](CC(C)C)NC(=O)NC(=O)NC(=O)CI next
25.7 µM

###

System: HCT-15 colon
EXPERIMENT: NCI tumour cell line growth inhibition, 48 h; in the data active = GI50 below about 0.43 µM; inactive = the rest
Would you mind answering with one of these outcomes? yes for active, no for inactive

Short answer needed: outcome of this test for CCCN(CCC)CCCNC(=O)c1cc2c(-c3ccc(OC)c(OC)c3)nn(C)c2s1 ?
no

Query COc1cccc(C2C3=C(COC3=O)N(CCO)c3cc4c(cc32)OCCO4)c1 (centres undefined) next
yes

Query O=C1C(Cl)=C(Nc2cccc(O)c2)C(=O)N1c1ccc(Cl)c(Cl)c1 next
no

Query CC1=C([Se]CC(OC(=O)[C@@H](CO)NC(=O)OC(C)(C)C)C(=O)NC(C)(C)C)C(=O)c2ccccc2C1=O (some centres undefined) next
no

***
Short answer needed: outcome of this test for C#CCNC(=O)CC[C@]1(C)[C@H]2CC[C@@H]3[C@@H]([C@@](C)(O)CCC=C(C)C)CC[C@@]3(C)[C@]2(C)CC[C@H]1C(=C)C ?
no

Query CC[O-].Cc1ccc2cccc([O-])c2n1.Cc1ccc2cccc([O-])c2n1.Cc1ccc2cccc([O-])c2n1.[Ti+4] next
no

Query C=C1C(=O)O[C@@H]2C[C@@H]1CC[C@@]1(C)O[C@@H]1CC[C@@]1(C)O[C@@H]1CC[C@@]2(C)O next
no

Query COc1ccc(C2=C(c3cc(OC)c(OC)c(OC)c3)C(=O)CC2)cc1 next
yes

Query C=C(C)[C@@H]1CCC2=C[C@@H](OC2=O)[C@@H](C(=C)C)C(=O)/C=C(/C)C(=O)C1 next
no

Query C/C(=C\CCc1ccoc1)CC/C=C(\C)CCCN1CCC(CO)CC1 next
no

Query C#COc1cccc(Nc2ncnc3ncc(NC(=O)CCl)cc23)c1 next
no

Query CCC[CH2][Sn]([CH2]CCC)([O]C(=O)c1nccnc1N)[O]C(=O)c1nccnc1N next
no

Query COc1cc([C@@H]2c3cc4c(cc3[C@H](O)[C@H]3COC(=O)[C@H]23)OCO4)cc(OC)c1OC next
yes

Query COc1ccc(Cc2cnc(NC(=O)c3sc4ccccc4c3Cl)s2)cc1 next
yes

###

System: HCT-116 colon
EXPERIMENT: NCI tumour cell line growth inhibition, 48 h
MEASURED ENDPOINT: TGI

I would be grateful if you could share the reported TGI for CC1C/C(=N\N(C)C)C(C#N)(C#N)C1(C#N)C#N (stereo not given) .
38.4 µM

Query O=c1c2cc(Br)cc(Br)c2[nH]c(=S)n1-c1ccccc1 next
> 100 µM

Query O=C(NNC(=O)c1ccncc1)c1ccncc1 next
> 100 µM

Query COc1cc2c3c(n(CCN(C)C)c(=O)c2cc1OC)-c1cc2c(cc1C3=O)OCO2 next
19.3 µM

Query CC(C)N=C(NC#N)NS(=O)(=O)c1cnccc1Nc1ccc(Cl)cc1 next
> 100 µM

***
I would be grateful if you could share the reported TGI for O=C1NC(=O)C(C(c2ccc(Cl)cc2)C2C(=O)NC(=O)NC2=O)C(=O)N1 .
> 100 µM

Query Cc1cc2c(cc1C)[n+](=O)c(C(=O)N1CCN(c3ccc([N+](=O)[O-])cc3)CC1)c(C)n2[O-] next
> 100 µM

###

System: SK-MEL-2 melanoma
EXPERIMENT: NCI tumour cell line growth inhibition, 48 h; in the data active = GI50 below about 0.43 µM; inactive = the rest
Would you mind answering with one of these outcomes? 1 (active), 0 (inactive)

Short answer needed: outcome of this test for COC(=O)[C@H](CC(C)C)NC(=O)NC(=O)NC(=O)CI ?
0

Query COc1cccc(C2C3=C(COC3=O)N(CCO)c3cc4c(cc32)OCCO4)c1 (stereo not given) next
1

Query CC(=O)OCC1OC(OC2=C(CC=C(Cl)Cl)C(=O)c3ccccc3C2=O)C(OC(C)=O)C(OC(C)=O)C1OC(C)=O (stereo not given) next
0

Query CCOC(=O)c1c(C)n2c(=O)cc(C)c3c(OC(C)=O)c(OC(C)=O)cc1c32 next
0

***
Short answer needed: outcome of this test for COc1ccc(-c2nn(-c3cccc(NC(=O)Nc4cc(C(F)(F)F)cc(C(F)(F)F)c4)c3)cc2-c2ccncc2)cc1Cl ?
0
